- measurement notes: In vivo pharmacokinetic study, intravenous administration to rats
- experimental parameters: male, Sprague-Dawley, rat, plasma; rats, intravenous, range over doses 0.5–5 mg/kg; read-out: terminal half-life
readout label: half-life

Quick one: half-life for `COc1cc(OC)cc(N2CCN(C(=O)Nc3nc4cc(F)ccc4nc3OC)CC2)c1` ?
152 to 168 min

* * *

- measurement notes: In vivo pharmacokinetic study, intravenous administration to rats
- experimental parameters: male, Sprague Dawley, rat, plasma; rats, intravenous, 0.5 mg/kg; read-out: T1/2 (converted)
readout label: half-life (h)
The answer is to be given in h; state only the numeric part.

Quick one: half-life for `COc1cc(OC)cc(N2CCN(C(=O)Nc3nc4cc(F)ccc4nc3OC)CC2)c1` ?
2.54
